# TARGET: furin, P09958;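 further: purified furin at 1:10 enzyme:substrate in 50 mM HEPES pH 7.5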
# Sequence (P09958 whole entry): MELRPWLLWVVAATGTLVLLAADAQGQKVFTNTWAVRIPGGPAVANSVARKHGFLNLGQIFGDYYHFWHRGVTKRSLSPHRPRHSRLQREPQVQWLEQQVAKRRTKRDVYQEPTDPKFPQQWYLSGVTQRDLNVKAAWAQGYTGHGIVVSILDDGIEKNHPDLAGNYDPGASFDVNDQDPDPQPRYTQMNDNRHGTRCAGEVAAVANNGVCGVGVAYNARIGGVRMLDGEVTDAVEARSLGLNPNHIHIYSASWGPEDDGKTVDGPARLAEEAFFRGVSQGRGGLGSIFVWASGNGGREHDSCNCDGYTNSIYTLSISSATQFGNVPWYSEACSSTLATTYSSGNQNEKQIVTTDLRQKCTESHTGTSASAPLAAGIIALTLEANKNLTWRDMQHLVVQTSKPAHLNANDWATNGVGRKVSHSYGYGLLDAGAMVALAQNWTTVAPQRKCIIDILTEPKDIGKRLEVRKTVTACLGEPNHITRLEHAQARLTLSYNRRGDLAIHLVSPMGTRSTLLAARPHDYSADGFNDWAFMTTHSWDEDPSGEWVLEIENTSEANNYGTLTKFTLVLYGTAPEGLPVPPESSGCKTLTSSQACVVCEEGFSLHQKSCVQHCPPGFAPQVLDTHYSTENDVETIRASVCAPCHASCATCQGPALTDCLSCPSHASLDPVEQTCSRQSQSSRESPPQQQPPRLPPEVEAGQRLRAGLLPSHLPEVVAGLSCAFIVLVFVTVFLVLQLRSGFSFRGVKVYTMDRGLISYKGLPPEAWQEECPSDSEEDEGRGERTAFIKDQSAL
# METHOD_SUMMARY: furin cleavage Z-score vs untreated control; higher = more cleavage, active = 3.5 or more, inactive = 1 or less, 8 variable residues between constant flanks
# PARTICULARS: 7.5 min
This is one part of the list. No count for the full screen is at hand.
Assign a class; possible classes are active, inactive

Record excerpt, results attached:
1) CATPAETTVRAGNASASA [HC926] = inactive
2) CAKNNRGRRQAGNASASA [FS-1018] = active
3) CAASIRHARFAGNASASA [FS-580] = active
4) CAVTPCAAEEAGNASASA [HC1376] = inactive
5) CASCQRRTRFAGNASASA [FS-379] = inactive
6) CASFSIFLLAAGNASASA [HC247] = inactive
7) CAAAVTSPLTAGNASASA [HC1058] = inactive
8) CASTPCSAELAGNASASA [HC2552] = inactive

Which outcome was entered for the sequence CAAGHAVGIFAGNASASA [HC747] in this test?
inactive

What do we get for CAASHRSTRFAGNASASA [FS-1309] ?
inactive

What do we get for CASTPCSAHYAGNASASA [HC2569] ?
inactive

What do we get for CALEDNVTPIAGNASASA [HC1434] ?
inactive

What do we get for CAASPRVARFAGNASASA [FS-1586] ?
active

# credit: the supplement of paper PMC3545927
